A collection of molecules and their measured Size (nm)
assay: Particle size and polydispersity index of nanoparticle compositions (Zetasizer Nano ZS); assay type: physicochemical; conditions: Table 1A; lipid:DSPC:cholesterol:PEG-DMG 50:10:38.5:1.5 mol %

{"columns": ["molecule", "unitAbbreviation", "Size (nm)"],
 "data": [
  ["CCCCC/C=C\\C/C=C\\CCCCCCCCC(CCCCCCCC/C=C\\C/C=C\\CCCCC)OC(=O)CCCN(C)C [MC3, DLin-MC3-DMA, reference compound]", "nm", 79.7],
  ["CCCCCCCCCOC(=O)CCCCCCCN(CCCCCCCC(=O)OC(CCCCCCCC)CCCCCCCC)C[C@@H](C)O", "nm", 129.6],
  ["CCCCCCCCCOC(=O)CCCCCCCN(CCCCCCCC(=O)OC(CCCCCCCC)CCCCCCCC)CCCNS(C)(=O)=O", "nm", 81.1],
  ["CCCCCCCCC(CCCCCCCC)OC(=O)CCCCCCCN(CCO)CCCCCC", "nm", 196.4],
  ["CCCCCCCCC(CCCCCCCC)OC(=O)CCCCCCCN(CCO)CCCC(=O)OC(CCCCC)CCCCCCCC (centres unmarked)", "nm", 71],
  ["CCCCCCCCCOC(=O)CCCCCCCN(CCCCCCCC(=O)OC(CCCCCCCC)CCCCCCCC)CCCC(=O)NC", "nm", 55.8],
  ["CCCCCCCCCOC(=O)CCCCCCCN(CCC#N)CCCCCCCC(=O)OC(CCCCCCCC)CCCCCCCC", "nm", 53.5],
  ["CCCCCCCCCOC(=O)CCCCCCCN(CCO)CCCCCCCC(=O)OC(CCC)CCC", "nm", 130.8]
]}

Source of measurements: patent US12263248B2
